Reference for the values: ChEMBL document CHEMBL5390255

target: ATP synthase; assay: Inhibition of Mycobacterium tuberculosis H37Rv ATP synthase by luminometer analysis

{"record smiles": "O=c1c(NCc2ccccn2)c(-c2ccc(N3CCOCC3)cc2)c1=O", "IC50 / nM": 30}
